Recorded values, source ChEMBL document CHEMBL1949609.

Tested on: RAW264.7
procedureDetails: Antiinflammatory activity in mouse RAW264.7 cells assessed as inhibition of LPS-induced TNFalpha production at 10 uM after 24 hrs by ELISA (reference value: 10124 +/- 1137.2 pg/ml)
Assay type: functional
Catalogue of compounds with associated Activity
reportedEndpoint: Activity (pg/mL)

• CCCCCCCC(=O)Oc1c(OC)ccc2c1[C@@]13CCN(C)[C@@H](C2)[C@H]1C=C(OC)C(=O)C3 = 7676.3
• CCCCCCCOc1c(OC)ccc2c1[C@@]13CCN(C)[C@@H](C2)[C@H]1C=C(OC)C(=O)C3 = 9134.7
• COC1=C[C@@H]2[C@@H]3Cc4ccc(OC)c(OCCCCOc5c(OC)ccc6c5[C@@]57CCN(C)[C@@H](C6)[C@H]5C=C(OC)C(=O)C7)c4[C@]2(CCN3C)CC1=O = 8744.4

###

System: RAW264.7
procedureDetails: Antiinflammatory activity in mouse RAW264.7 cells assessed as inhibition of LPS-induced TNFalpha production at 10 uM after 24 hrs by ELISA (reference value: 10124 +/- 1137.2 pg/ml)
Format: functional
Recorded Activity, one value per entry.
reportedEndpoint: Activity (pg/mL)

* COC1=C[C@@H]2[C@@H]3Cc4ccc(OC)c(OC(=O)CCCCCCCC(=O)Oc5c(OC)ccc6c5[C@@]57CCN(C)[C@@H](C6)[C@H]5C=C(OC)C(=O)C7)c4[C@]2(CCN3C)CC1=O | 9003.6
* COC1=C[C@@H]2[C@@H]3Cc4ccc(OC)c(OCCCOc5c(OC)ccc6c5[C@@]57CCN(C)[C@@H](C6)[C@H]5C=C(OC)C(=O)C7)c4[C@]2(CCN3C)CC1=O | 8303.2
* CCCCCCCCC(=O)Oc1c(OC)ccc2c1[C@@]13CCN(C)[C@@H](C2)[C@H]1C=C(OC)C(=O)C3 | 9728.9

###

Tested on: RAW264.7
procedureDetails: Antiinflammatory activity in mouse RAW264.7 cells assessed as inhibition of LPS-induced IL-6 production at 10 uM after 6 hrs by ELISA (reference value: 1046.1 +/- 111.2 pg/ml)
Type: functional
Listing: Activity of selected compounds
reportedEndpoint: Activity (pg/mL)

* CCCCCCCC(=O)Oc1c(OC)ccc2c1[C@@]13CCN(C)[C@@H](C2)[C@H]1C=C(OC)C(=O)C3 | 229.9
* COC1=C[C@@H]2[C@@H]3Cc4ccc(OC)c(OCCCOc5c(OC)ccc6c5[C@@]57CCN(C)[C@@H](C6)[C@H]5C=C(OC)C(=O)C7)c4[C@]2(CCN3C)CC1=O | 949.7
* CCCCCCCCC(=O)Oc1c(OC)ccc2c1[C@@]13CCN(C)[C@@H](C2)[C@H]1C=C(OC)C(=O)C3 | 148.5
* CCCCCCCOc1c(OC)ccc2c1[C@@]13CCN(C)[C@@H](C2)[C@H]1C=C(OC)C(=O)C3 | 207.5
* COC1=C[C@@H]2[C@@H]3Cc4ccc(OC)c(OC(=O)CCCCCCCC(=O)Oc5c(OC)ccc6c5[C@@]57CCN(C)[C@@H](C6)[C@H]5C=C(OC)C(=O)C7)c4[C@]2(CCN3C)CC1=O | 825.5
* COC1=C[C@@H]2[C@@H]3Cc4ccc(OC)c(OCCCCOc5c(OC)ccc6c5[C@@]57CCN(C)[C@@H](C6)[C@H]5C=C(OC)C(=O)C7)c4[C@]2(CCN3C)CC1=O | 853.3
